Exercise: state measured KA for each of the molecules provided.
Tested system: T1, cynomolgus monkey IL-6 (Macaca fascicularis, UniProt P79341)
T1 construct: His
T1 sequence (P79341 28-212): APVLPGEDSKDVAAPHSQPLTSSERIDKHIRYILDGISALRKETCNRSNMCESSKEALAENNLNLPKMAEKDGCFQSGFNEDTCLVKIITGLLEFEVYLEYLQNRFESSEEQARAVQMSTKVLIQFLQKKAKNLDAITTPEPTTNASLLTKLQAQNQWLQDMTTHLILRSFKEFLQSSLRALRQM
Procedure summary: Surface plasmon resonance (Biacore), cynomolgus monkey IL-6
Assay type: binding
Test parameters: cy/cyno; periplasmic fractions, 28A6 chain-shuffled
Record the value in M⁻¹, omitting the unit from your answer.

Record 48H1g2, R4: 28A6 chain-shuffled Fab, periplasmic fraction (antibody, V domains shown) VH: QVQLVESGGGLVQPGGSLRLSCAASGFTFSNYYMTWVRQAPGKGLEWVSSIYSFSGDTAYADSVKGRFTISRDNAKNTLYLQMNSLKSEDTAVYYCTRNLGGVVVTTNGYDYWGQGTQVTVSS VL: DVVMTQSPSSLPTSLGDSVTITCQASQSISDELSWYQQKPGQTPKLLIYGASKLQTGVPSRFSGSGSGTSFTLTISGLEAEDLATYYCLQGYSWPFMFGQGTKVELK . Reported KA: 1.18e+09

Sample 55E10g1: 28A6 chain-shuffled Fab, periplasmic fraction (antibody, V domains shown) VH: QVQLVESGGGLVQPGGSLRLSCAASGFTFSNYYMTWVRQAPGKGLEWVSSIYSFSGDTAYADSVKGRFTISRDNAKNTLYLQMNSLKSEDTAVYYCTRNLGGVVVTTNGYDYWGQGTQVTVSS VL: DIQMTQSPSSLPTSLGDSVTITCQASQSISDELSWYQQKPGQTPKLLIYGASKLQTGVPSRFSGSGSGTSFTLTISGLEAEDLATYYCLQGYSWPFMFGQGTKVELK ; KA observed: 2.1e+09

Documented KA of 55C11f: 28A6 chain-shuffled Fab, periplasmic fraction (antibody, V domains shown) VH: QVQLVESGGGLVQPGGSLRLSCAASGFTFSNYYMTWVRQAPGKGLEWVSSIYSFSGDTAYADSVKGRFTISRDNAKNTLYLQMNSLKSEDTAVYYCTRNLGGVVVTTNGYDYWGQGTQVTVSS VL: DIQLTQSPSSLSASLGDSVTITCQASQSISDELSWYQQKPGQTPKLLIYGASKLQTGVPSRFSGSGSGTSFTLTISGLEAEDLATYYCLQGYRWPFMFGQGTKVELK : 3.2e+09
